Target of assay: human P2X2/3 receptor (Homo sapiens (Human), UniProt P56373+Q9UBL9)
Sequence (Q9UBL9 whole entry): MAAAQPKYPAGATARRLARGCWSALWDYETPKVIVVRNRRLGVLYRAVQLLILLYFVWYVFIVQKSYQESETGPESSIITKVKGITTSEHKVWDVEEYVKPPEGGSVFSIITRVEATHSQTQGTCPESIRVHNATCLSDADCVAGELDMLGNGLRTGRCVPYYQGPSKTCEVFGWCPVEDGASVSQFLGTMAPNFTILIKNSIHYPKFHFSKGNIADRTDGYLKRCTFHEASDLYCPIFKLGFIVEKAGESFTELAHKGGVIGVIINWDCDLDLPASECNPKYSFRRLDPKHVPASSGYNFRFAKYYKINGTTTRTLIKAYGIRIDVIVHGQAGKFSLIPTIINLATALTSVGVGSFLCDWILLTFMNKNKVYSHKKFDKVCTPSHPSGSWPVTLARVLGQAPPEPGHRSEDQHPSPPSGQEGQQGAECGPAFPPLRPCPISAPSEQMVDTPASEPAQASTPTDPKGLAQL
Sequence (P56373 whole entry): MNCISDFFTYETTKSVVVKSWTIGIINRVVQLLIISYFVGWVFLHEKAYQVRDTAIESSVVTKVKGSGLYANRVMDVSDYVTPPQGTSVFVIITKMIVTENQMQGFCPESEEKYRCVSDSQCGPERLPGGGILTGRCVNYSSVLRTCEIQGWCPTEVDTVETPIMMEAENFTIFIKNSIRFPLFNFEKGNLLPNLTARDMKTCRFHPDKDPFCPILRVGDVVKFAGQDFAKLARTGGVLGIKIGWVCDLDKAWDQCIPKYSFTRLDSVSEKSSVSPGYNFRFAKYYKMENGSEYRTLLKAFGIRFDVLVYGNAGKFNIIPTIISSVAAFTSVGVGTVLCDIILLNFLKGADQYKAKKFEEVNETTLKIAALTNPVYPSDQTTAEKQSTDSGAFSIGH
Experiment description: Inhibitory activity on human P2X2/3 receptor (calcium 6 dye FLIPR assay, agonist α,β-MeATP)
Cond: HEK293-P2X2/3 stably expressing cell line, FLIPR Tetra
Experimental: Biological Assay: Determination of the Inhibitory Activity of the Compounds on Human P2X3 and P2X2/3 Receptors Cells were seeded into a poly-D-lysine-coated 384-well cell culture plate (Corning) at a density of 11,000 cells/well/25 μL of cell inoculation medium, and were cultured in a cell incubator overnight. […]
hey, just use criterion met if measured IC50 is less than 300 nM, otherwise criterion not met

Asked: Please indicate whether the reported IC50 of CC(C)c1cnc([Si](C)(C)C)cc1Oc1cnc(N)nc1N is strictly below 300 nM.
Given back: criterion not met

Others:
Asked: Please indicate whether the reported IC50 of CC(C)c1cnc(C#Cc2ccc(C#N)cc2)cc1Oc1cnc(N)nc1N is strictly below 300 nM.
Given back: criterion not met

Asked: Please indicate whether the reported IC50 of CC(C)c1cnc(Br)cc1Oc1cnc(NCCO)nc1N is strictly below 300 nM.
Given back: criterion met

Asked: Please indicate whether the reported IC50 of COc1ccc(C#Cc2cc(Oc3cnc(N)nc3N)c(C(C)C)cn2)cc1 is strictly below 300 nM.
Given back: criterion not met

Source: patent US11919918B2
